Reported koff values follow for various binders
target: human CD3 ed (human, UniProt P07766 23-126; P04234 22-105, limits assumed); assay: SPR Biacore T200, IgG captured on protein A, 25 C;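 note: antigens diluted in ACES running buffer at pH 7.4 were flowed over antibodies held on a CM3 chip bearing amine-coupled protein A, with buffer alone serving as blank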
Sequence (P07766 23-126 limits assumed, chain 1 of 2): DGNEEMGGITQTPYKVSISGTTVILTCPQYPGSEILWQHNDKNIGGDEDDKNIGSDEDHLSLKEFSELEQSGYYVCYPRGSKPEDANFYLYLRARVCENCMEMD
Sequence (P04234 22-105 limits assumed, chain 2 of 2): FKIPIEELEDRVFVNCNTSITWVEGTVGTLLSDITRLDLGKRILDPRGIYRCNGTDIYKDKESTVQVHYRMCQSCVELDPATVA
The answer is to be given in s⁻¹; state only the numeric part.

Here is how some binders turned out for koff.
| binder | koff (s⁻¹) |
| --- | --- |
| dBBDu183/L067 (antibody, V domains shown, IgG format; constant regions not specified) VH: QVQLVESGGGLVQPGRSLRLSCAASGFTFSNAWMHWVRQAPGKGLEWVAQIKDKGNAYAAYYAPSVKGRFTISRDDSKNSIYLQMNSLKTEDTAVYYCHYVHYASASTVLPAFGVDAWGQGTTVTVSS VL: DIVMTQSPLSLPVTPGEPASISCQSSESLVHVNRHTYLHWYQQKPGQAPRLLIYKVYNRFPGVPDRFSGSGSGTDFTLKISRVEAEDVGVYYCAQGTSVPFTFGQGTKLEIK | 0.0193 |
| dBBDu193/L127 (antibody, V domains shown, IgG format; constant regions not specified; also called dBBDu_193 dBBDu.L127) VH: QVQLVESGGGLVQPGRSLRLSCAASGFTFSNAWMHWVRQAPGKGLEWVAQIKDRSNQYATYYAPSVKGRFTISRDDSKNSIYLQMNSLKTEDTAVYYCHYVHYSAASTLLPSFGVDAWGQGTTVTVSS VL: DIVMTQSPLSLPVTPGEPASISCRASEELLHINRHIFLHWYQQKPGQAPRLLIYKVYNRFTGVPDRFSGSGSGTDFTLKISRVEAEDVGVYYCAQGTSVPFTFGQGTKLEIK | 0.0191 |

Let us move to another entry and its koff.
INPUT: Can you share its koff? I mean this binder: dBBDu183/L063 (antibody, V domains shown, IgG format; constant regions not specified) VH: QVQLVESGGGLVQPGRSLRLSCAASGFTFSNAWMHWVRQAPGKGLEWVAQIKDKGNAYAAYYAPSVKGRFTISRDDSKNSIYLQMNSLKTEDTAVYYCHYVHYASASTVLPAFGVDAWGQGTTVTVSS VL: DIVMTQSPLSLPVTPGEPASISCRSSQELVHTNRHTYLHWYQQKPGQAPRLLIYKVSNRFPGVPDRFSGSGSGTDFTLKISRVEAEDVGVYYCAQGTQVPFTFGQGTKLEIK
OUTPUT: 0.0157
